Procedure Details: In vitro cytotoxicity by MTT assay, HEK 293
Format: cell-based, human
Measurement Parameters: human, HEK 293 cells, 0.015 μM, read-out: % cytotoxicity (100 − % cell survival) of HEK 293 cell line
Parameter cytotoxicity at 72 h, 0.015 µM: see the listing below.
Experimental Endpoint: cytotoxicity at 72 h, 0.015 µM (%)

[[record]]
smiles_str = "Nc1ccc(S(=O)(=O)Nc2nnc(S(=O)(=O)NC(=O)c3cccc([N+](=O)[O-])c3)s2)cc1"
reported_result = 35.1

[[record]]
smiles_str = "O=C(NS(=O)(=O)c1nnc(N=Cc2ccccc2)s1)c1ccccc1"
reported_result = 38.2

[[record]]
smiles_str = "Nc1ccc(S(=O)(=O)Nc2nnc(S(=O)(=O)NC(=O)c3ccccc3)s2)cc1"
reported_result = 25.8

[[record]]
smiles_str = "CC(=O)Nc1ccc(S(=O)(=O)Nc2nnc(S(=O)(=O)NC(=O)c3ccc(N)cc3)s2)cc1"
reported_result = 32

[[record]]
smiles_str = "CC(=O)Nc1ccc(S(=O)(=O)Nc2nnc(S(=O)(=O)NC(=O)c3cccc([N+](=O)[O-])c3)s2)cc1"
reported_result = 42.2

[[record]]
smiles_str = "Nc1ccc(C(=O)NS(=O)(=O)c2nnc(N)s2)cc1"
reported_result = 37.9

[[record]]
smiles_str = "Nc1ccc(S(=O)(=O)Nc2nnc(S(=O)(=O)NC(=O)c3ccccc3O)s2)cc1"
reported_result = 19.9

[[record]]
smiles_str = "Nc1nnc(S(=O)(=O)NC(=O)c2ccccc2O)s1"
reported_result = 38.3

